Tested on: BDF1 mice, L1210 terephthalanilide-resistant leukemia ip, survival T/C
procedure-details: NCI In Vivo Anticancer Drug Screen. Data for tumor model L1210 Leukemia resistant to A Terephthalanilide; NSC 38280 (intraperitoneal) in B6D2F1 (BDF1) mice
condition-notes: endpoint: mean survival time; dose: 125.0 micrograms/kg/injection; schedule: Q01DX010 (ip); vehicle: saline; higher = longer survival
Toxic doses and inconclusive results are not listed.
Reported T/C values follow for various molecules

Q: Hello, I am looking for reported T/C with BDF1 mice, L1210 terephthalanilide-resistant leukemia ip, survival T/C for N#Cc1cn(C2OC(CO)C(O)C2O)c2ncnc(N)c12 (centres undefined) . Could you help?
A: 97 % of control

Q: GET /values?readout=T/C&system=BDF1 mice, L1210 terephthalanilide-resistant leukemia ip, survival T/C&item= CSCS(=O)C[C@H](CO)NC(=O)/C=C/c1c(C)[nH]c(=O)[nH]c1=O (some centres undefined)
A: 100 % of control

Further cases:
Q: Form entry - test system: BDF1 mice, L1210 terephthalanilide-resistant leukemia ip, survival T/C; read-out: T/C; molecule: O[C@H](CN1CC1)[C@@H](O)CN1CC1
A: 111 % of control

Q: Give recorded T/C with BDF1 mice, L1210 terephthalanilide-resistant leukemia ip, survival T/C for the following molecule: CS(=O)(=O)OCCN(CCOS(C)(=O)=O)c1ccc(N=O)cc1
A: 118 % of control

###

Tested on: BDF1 mice, L1210 terephthalanilide-resistant leukemia ip, survival T/C
procedure-details: NCI In Vivo Anticancer Drug Screen. Data for tumor model L1210 Leukemia resistant to A Terephthalanilide; NSC 38280 (intraperitoneal) in B6D2F1 (BDF1) mice
condition-notes: endpoint: mean survival time; dose: 2.5 mg/kg/injection; schedule: Q01DX010 (ip); vehicle: saline
Toxic doses and inconclusive results are not listed. Rule for the calls: active = survival T/C of 150% or more; inactive = T/C below 125% in these data.
// classify into t (active), f (inactive)

Use the examples below as a reference point.
Q: Hey, what did the test say about CC[n+]1ccccc1-c1ccc(NC(=O)c2ccc(C(=O)Nc3ccc(-c4ccccn4)cc3)cc2)cc1 ?
A: f

Q: Would you mind telling me which call this test gave CC[n+]1c(-c2ccccc2)c2cc(N)ccc2c2ccc(N)cc21 ?
A: f

Q: State the result this test recorded for Nc1nc(=S)c2[nH]cnc2[nH]1 .
A: t

---
Q: For NC(Cc1ccc(N(CCCl)CCCl)cc1)C(=O)O (centres undefined) , what call appears in the results of this test?
A: t

###

# maps each entry to its T/C
System: BDF1 mice, L1210 terephthalanilide-resistant leukemia ip, survival T/C
procedure-details: NCI In Vivo Anticancer Drug Screen. Data for tumor model L1210 Leukemia resistant to A Terephthalanilide; NSC 38280 (intraperitoneal) in B6D2F1 (BDF1) mice
condition-notes: endpoint: mean survival time; dose: 100.0 mg/kg/injection; schedule: Q01DX Z (ip); vehicle: carboxymethylcellulose (CMC); higher = longer survival
Inconclusive results and toxic doses are left out.

Below: 5 molecules and their reported T/C.
Q: Look at this molecule and give its reported T/C. CCn1cnc2c(=S)nc[nH]c21
A: 155 % of control

Q: # lookup: T/C of N#CCSc1ncnc2nc[nH]c12
A: 150 % of control

Q: Item Cn1c(O)c(N=NC(N)=S)c2ccccc21 has what recorded T/C?
A: 87 % of control

Q: Which T/C value belongs to C[C@H]1C(=O)O[C@@H]2CCN3CC=C(COC(=O)[C@](C)(O)[C@@]1(C)O)[C@H]23 ?
A: 119 % of control

Q: Look up T/C: CN(C)C(=S)N=Nc1c(O)[nH]c2ccccc12
A: 89 % of control

New cases:
Q: Please give the measured T/C for this molecule: CS(=O)(=O)OCC(O)C(O)COS(C)(=O)=O (configuration not stated)
A: 103 % of control

Q: Requested read-out: T/C. Entry: S=c1nc[nH]c2nc[nH]c12
A: 107 % of control

###

Test system: BDF1 mice, L1210 terephthalanilide-resistant leukemia ip, survival T/C
procedure-details: NCI In Vivo Anticancer Drug Screen. Data for tumor model L1210 Leukemia resistant to A Terephthalanilide; NSC 38280 (intraperitoneal) in B6D2F1 (BDF1) mice
condition-notes: endpoint: mean survival time; dose: 32.0 mg/kg/injection; schedule: Q01DX010 (ip); vehicle: saline; higher = longer survival
Inconclusive results and toxic doses are left out.
reported-property: T/C

Previously resolved entries follow.
Q: // T/C lookup, key: Nc1nc(SCc2ccccc2)c2[nH]cnc2n1
A: 115 % of control

Q: Item under review: CC(CCC(C)OS(C)(=O)=O)OS(C)(=O)=O (centres undefined) . Reported T/C?
A: 110 % of control

Q: // returns reported T/C for input c1ccc(CNc2ncnc3[nH]ncc23)cc1
A: 107 % of control

Turning now to a further molecule:
Q: # get_value(readout='T/C', item= CN(C)c1ccc(/C=C/c2ccnc3ccccc23)cc1 )
A: 101 % of control

###

Reported T/C is given for each of the following compounds.
Test system: BDF1 mice, L1210 terephthalanilide-resistant leukemia ip, survival T/C
procedure-details: NCI In Vivo Anticancer Drug Screen. Data for tumor model L1210 Leukemia resistant to A Terephthalanilide; NSC 38280 (intraperitoneal) in B6D2F1 (BDF1) mice
condition-notes: endpoint: mean survival time; dose: 75.0 mg/kg/injection; schedule: Q01DX Z (ip); vehicle: saline; higher = longer survival
Toxic doses and inconclusive results are not listed.

Q: So what's the measured T/C for this one? CSc1ncnc2c1ncn2C1OC(CO)C(O)C1O (centres undefined)
A: 88 % of control

Further cases:
Q: Name the reported T/C value associated with the compound O=P1(N(CCCl)CCCl)NCCCO1 (centres undefined)
A: 102 % of control

Q: Name the recorded T/C for COS(C)(=O)=O .
A: 106 % of control

Q: Entry CC1CCOS(=O)O1 (centres undefined) has what T/C?
A: 120 % of control

###

Tested on: BDF1 mice, L1210 terephthalanilide-resistant leukemia ip, survival T/C
procedure-details: NCI In Vivo Anticancer Drug Screen. Data for tumor model L1210 Leukemia resistant to A Terephthalanilide; NSC 38280 (intraperitoneal) in B6D2F1 (BDF1) mice
condition-notes: endpoint: mean survival time; dose: 2.5 mg/kg/injection; schedule: Q01DX Z (ip); vehicle: carboxymethylcellulose (CMC)
Inconclusive results and toxic doses are left out. How the source made its calls: active means survival T/C of 150% or more; inactive means T/C below 125% in these data.
Hi there, use one of these labels in your reply, thanks! True = active, False = inactive

Here's what some known entries look like.
Q: Dear colleague, could you share the recorded outcome for Nc1nc(=S)c2[nH]cnc2[nH]1 when you have a moment?
A: True

Q: What did the test return for Nc1ncnc2c1ccn2C1OC(CO)C(O)C1O (stereo unspecified) ?
A: False

Q: Hi team, can someone confirm the assay call for CC(CCC(C)OS(C)(=O)=O)OS(C)(=O)=O (stereo unspecified) ?
A: False

Others:
Q: Lab log entry: Nc1nc(=S)c2ncn(C3OC(CO)C(O)C3O)c2[nH]1 (stereo unspecified) — outcome as called in the assay?
A: True

Q: What outcome does the record of this test show for NC(Cc1ccc(N(CCCl)CCCl)cc1)C(=O)O (stereo unspecified) ?
A: True

Q: Entry S=c1nc[nH]c2nc[nH]c12 : call = ?
A: False

###

Tested on: BDF1 mice, L1210 terephthalanilide-resistant leukemia ip, survival T/C
procedure-details: NCI In Vivo Anticancer Drug Screen. Data for tumor model L1210 Leukemia resistant to A Terephthalanilide; NSC 38280 (intraperitoneal) in B6D2F1 (BDF1) mice
condition-notes: endpoint: mean survival time; dose: 25.0 mg/kg/injection; schedule: Q01DX Z (ip); vehicle: carboxymethylcellulose (CMC)
Inconclusive results and toxic doses are left out. How the source made its calls: active means survival T/C of 150% or more; inactive means T/C below 125% in these data.
I would appreciate it if you answered using one of these outcomes: active, inactive

Q: Hi, sorry to bother you, what did the test record for Cc1cc(N(CCCl)CCCl)ccc1N=Nc1ccccc1C(=O)O ?
A: inactive

---
Q: Could you please tell me the result logged for O=c1[nH]cc(F)c(=O)[nH]1 in this assay?
A: active

Q: Per the records of this test, what outcome belongs to CS(=O)(=O)OCC(O)C(O)COS(C)(=O)=O (stereo not drawn) ?
A: inactive
